Target: recombinant human HDAC6 (Homo sapiens (Human))
Sequence (Q9UBN7 whole entry): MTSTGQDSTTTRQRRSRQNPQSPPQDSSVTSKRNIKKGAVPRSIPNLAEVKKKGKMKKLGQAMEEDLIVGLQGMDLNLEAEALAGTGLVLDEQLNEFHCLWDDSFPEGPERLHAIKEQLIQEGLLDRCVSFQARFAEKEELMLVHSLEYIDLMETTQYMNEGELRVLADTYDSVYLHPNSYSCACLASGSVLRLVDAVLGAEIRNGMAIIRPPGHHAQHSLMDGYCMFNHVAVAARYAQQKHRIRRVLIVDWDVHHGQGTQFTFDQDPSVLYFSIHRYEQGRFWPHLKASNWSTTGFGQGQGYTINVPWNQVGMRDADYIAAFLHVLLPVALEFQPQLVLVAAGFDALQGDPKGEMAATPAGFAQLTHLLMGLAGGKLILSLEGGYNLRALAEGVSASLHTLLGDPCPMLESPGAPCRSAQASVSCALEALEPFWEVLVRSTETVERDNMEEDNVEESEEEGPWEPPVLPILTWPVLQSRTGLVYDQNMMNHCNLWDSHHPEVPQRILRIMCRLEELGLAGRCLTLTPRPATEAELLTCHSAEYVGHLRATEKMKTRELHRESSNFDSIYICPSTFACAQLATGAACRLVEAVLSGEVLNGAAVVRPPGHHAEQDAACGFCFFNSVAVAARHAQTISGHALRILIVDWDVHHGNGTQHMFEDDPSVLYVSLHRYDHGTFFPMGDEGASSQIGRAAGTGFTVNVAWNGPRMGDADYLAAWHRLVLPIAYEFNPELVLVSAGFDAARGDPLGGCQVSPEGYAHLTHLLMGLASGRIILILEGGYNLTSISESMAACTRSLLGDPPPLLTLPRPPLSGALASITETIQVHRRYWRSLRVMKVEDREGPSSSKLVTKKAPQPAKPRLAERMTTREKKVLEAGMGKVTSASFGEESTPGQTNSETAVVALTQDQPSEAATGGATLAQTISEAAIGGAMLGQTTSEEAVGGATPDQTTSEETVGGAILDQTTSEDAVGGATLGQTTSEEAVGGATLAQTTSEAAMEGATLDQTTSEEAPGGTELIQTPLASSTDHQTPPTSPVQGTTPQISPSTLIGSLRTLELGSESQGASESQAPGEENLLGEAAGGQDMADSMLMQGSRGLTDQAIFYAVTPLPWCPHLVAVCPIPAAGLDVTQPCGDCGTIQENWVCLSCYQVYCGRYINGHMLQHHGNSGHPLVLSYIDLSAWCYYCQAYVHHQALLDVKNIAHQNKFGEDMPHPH
Experiment: Enzymatic screening, HDAC6 inhibition (fluorogenic FdL_G substrate)
Method: For each test compound, 100× concentrated DMSO solutions at 8 doses were prepared and then diluted in assay buffer (25 mM Tris-HCl, pH 8, 130 mM NaCl, 0.05% Tween-20, 10% Glycerol) to obtain 5× concentrated solutions in relation to the final concentrations (typical final concentration range—6.4-200000 nM or 0.18-50000 nM, final DMSO content—1%). […]
pIC50: −log10 of the molar value.
Param threshold (7) applies to pIC50; output Met when value >= threshold, Not met when value < threshold.

{"columns": ["chemical smiles", "assay system", "assigned category"],
 "data": [
  ["CN(C)C(=O)c1cccc(-c2nnn(Cc3ccc(-c4nnc(C(F)F)o4)cc3)n2)c1", "recombinant human HDAC6 (Homo sapiens (Human))", "Met"],
  ["Nc1ccc(-c2ncc(Cc3ccc(-c4nnc(C(F)F)o4)cc3)o2)cc1", "recombinant human HDAC6 (Homo sapiens (Human))", "Not met"],
  ["CNc1ncc2cc(-c3cn(Cc4ccc(-c5nnc(C(F)F)o5)c(F)c4F)nn3)ccc2n1", "recombinant human HDAC6 (Homo sapiens (Human))", "Not met"],
  ["O=C(Nc1cccc(-c2cn(Cc3cc(F)c(-c4nnc(C(F)F)o4)cc3F)nn2)c1)N1CCOCC1", "recombinant human HDAC6 (Homo sapiens (Human))", "Met"],
  ["NC(=O)c1cccc(-c2nnn(Cc3ccc(-c4nnc(C(F)F)o4)c(F)c3)n2)c1", "recombinant human HDAC6 (Homo sapiens (Human))", "Met"],
  ["Fc1cc(-c2nnc(C(F)F)o2)cnc1Cn1nnc(-c2cccc(-c3nc4c([nH]3)CCNC4)c2)n1", "recombinant human HDAC6 (Homo sapiens (Human))", "Met"],
  ["O=C1Nc2ccc(-c3cn(Cc4ccc(-c5nnc(C(F)F)o5)cn4)nn3)cc2NC12CCNCC2", "recombinant human HDAC6 (Homo sapiens (Human))", "Met"],
  ["Cn1c(N)nc2cc(-c3cn(Cc4ccc(-c5nnc(C(F)F)o5)cc4Cl)nn3)ccc21", "recombinant human HDAC6 (Homo sapiens (Human))", "Met"],
  ["Fc1cc(Cn2nnc(-c3cccc(-c4nc5c([nH]4)CNCC5)c3)n2)ccc1-c1nnc(C(F)F)o1", "recombinant human HDAC6 (Homo sapiens (Human))", "Met"]
]}
